Experiment: TD Phase (Groups 1 and 3): plasma and ocular tissue concentrations and pharmacokinetics of Compound 18 and its metabolite Compound 4 after once daily ocular instillation of Compound 18 nanosuspension for 7 days
Type: in vivo, New Zealand white rabbits
Settings: male, New Zealand white, rabbit, topical or ocular; Lens; Day 7; Compound 18 0.8 mg/kg ocular instillation once daily; Groups 1 and 3
MEASURED PROPERTY: Tmax

structure_notation=CCCc1nn(C)c2c(=O)[nH]c(-c3cc(S(=O)(=O)N4CC(CCCO)C4)ccc3OCC)nc12 measured_property=Tmax observed_result="1 h"

---

Test: TD Phase (Groups 1 and 3): plasma and ocular tissue concentrations and pharmacokinetics of Compound 18 and its metabolite Compound 4 after once daily ocular instillation of Compound 18 nanosuspension for 7 days
Type: in vivo, New Zealand white rabbits
Conditions: male, New Zealand white, rabbit, lens, other: ocular instillation (eye drop), 0.798 mg/kg/day, TD Phase, Group 3, 8 h, Mean; read-out: Final Compound 18 Lens Conc.
MEASURED PROPERTY: concentration at 8 h

structure_notation=CCCc1nn(C)c2c(=O)[nH]c(-c3cc(S(=O)(=O)N4CC(CCCO[N+](=O)[O-])C4)ccc3OCC)nc12 observed_result="0 ng/g"

Numbers sourced from patent US20220153746A1.
